FYI, the data here is from patent US20150344888A1.

# subject of test: T1, USP30 (active enzyme in the ubiquitin-AMC assay) (UniProt Q70CQ3 57-517)
# T1 chain: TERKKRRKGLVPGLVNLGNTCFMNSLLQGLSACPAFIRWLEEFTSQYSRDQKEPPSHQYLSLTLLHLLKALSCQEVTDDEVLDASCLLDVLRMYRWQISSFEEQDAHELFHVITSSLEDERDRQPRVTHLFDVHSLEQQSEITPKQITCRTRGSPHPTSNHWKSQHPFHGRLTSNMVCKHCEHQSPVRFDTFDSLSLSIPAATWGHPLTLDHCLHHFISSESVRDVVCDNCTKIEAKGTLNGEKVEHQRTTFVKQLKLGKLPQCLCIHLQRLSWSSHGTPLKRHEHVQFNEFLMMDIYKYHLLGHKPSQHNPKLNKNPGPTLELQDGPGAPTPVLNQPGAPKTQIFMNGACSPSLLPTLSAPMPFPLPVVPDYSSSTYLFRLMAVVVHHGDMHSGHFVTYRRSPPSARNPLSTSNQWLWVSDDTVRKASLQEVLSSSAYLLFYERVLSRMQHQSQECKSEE
# protocol: ubiquitin-AMC enzyme inhibition
parameter: IC50 (µM)

INSERT INTO assay_data (binder, readout_number) VALUES
  ('VSRCYIFWNEMFCDVE [peptide USP30-8]', 121);
